- METHOD_SUMMARY: Solubility test, suspension filtered and filtrate analyzed by HPLC
- Format: physicochemical
- REPORTED_CONDITIONS: aqueous buffer, thermodynamic from solid, pH 6.8 buffer, 0.5 h, 25° C.
ATTRIBUTE_MEASURED: solubility at 0.5 h

Please give measured solubility at 0.5 h of the following entry: N#Cc1ccc(-c2cnccc2SCC2(CC(=O)O)CC2)cc1 83 µg/mL

====

- METHOD_SUMMARY: Solubility test by visual observation
- Type: physicochemical
- REPORTED_CONDITIONS: aqueous buffer, thermodynamic from solid; pH 6.8 buffer, 0.5 h, visual observation
- Experimental: The solubilities of 1-Na and 1-K salts were very high, so the solubility was determined by visual observation. Weighed about 5 mg of sample solid (1-Na or 1-K salt) into a 2 mL of vial, and then added 5 uL of pH 6.8 buffer solution or water each time until the solids was dissolved. The solubilities of the three salts and the Compound 1 were studied in pH 6.8 buffer and water, and the data was summarized in Table 5.
ATTRIBUTE_MEASURED: solubility at 0.5 h

Please give measured solubility at 0.5 h of the following entry: N#Cc1ccc(-c2cnccc2SCC2(CC(=O)[O-])CC2)cc1.[Na+] [1-Na salt] > 400 mg/mL

Please give measured solubility at 0.5 h of the following entry: N#Cc1ccc(-c2cnccc2SCC2(CC(=O)[O-])CC2)cc1.[K+] [1-K salt] > 400 mg/mL
